- Tested on: Protease enzyme
- assay: Residual activity of protease enzyme in liquid detergent formulation with added perfume component after storage
- Format: biochemical
- test_parameters: 0.06% by weight perfume component added to 'base' liquid formulation; 2 weeks storage at 37° C.; activity determined at 40° C. in TRIS pH 9 buffer, tetrapeptide substrate; relative to t=0
Param threshold (50%) applies to Residual activity after 2 weeks; output TRUE when value >= threshold, FALSE when value < threshold.

[[record]]
molecule = "O=Cc1ccccc1"
label = "TRUE"


Could you please find out whether `CCCCCCCCCC/C=C/C=O` has Residual activity after 2 weeks that meets 50% or exceeds it?
FALSE

Could you please find out whether `CC(C)=C1CC[C@@H](C)CC1=O` has Residual activity after 2 weeks that meets 50% or exceeds it?
TRUE

Could you please find out whether CC(C=O)Cc1ccc(C(C)(C)C)cc1 (stereo not drawn) has Residual activity after 2 weeks that meets 50% or exceeds it?
FALSE

Could you please find out whether `CCCCCCC(C=O)=Cc1ccccc1` has Residual activity after 2 weeks that meets 50% or exceeds it?
TRUE

Could you please find out whether `COc1cc(C=O)ccc1O` has Residual activity after 2 weeks that meets 50% or exceeds it?
FALSE
